Values were extracted from ChEMBL document CHEMBL1154413.

Each entry below lists one item and its recorded Ratio value.
- System: Staphylococcus epidermidis
- protocolNotes: Ratio of MBC for Staphylococcus epidermidis to MIC for Staphylococcus epidermidis
- Format: functional
readout: Ratio

compound	relationSign	measured
O/N=C(\Nc1ccccc1)c1cccc(C(F)(F)F)c1	=	1
CC(=O)Nc1c2sscc-2n(C)c1=O [THIOLUTIN]	=	2
CNC(=O)[C@@H](C)[C@H]1C(=O)/C(=C(O)/C=C/C(C)=C/[C@@H](C)[C@H]2O[C@@]3(C)O[C@H](C=C[C@@]34CO4)[C@@H]2C)C(=O)N1[C@@H]1CC[C@H](O)[C@H](C)O1 [STREPTOLYDIGIN]	=	2
CCOC(=O)c1c(NC(=O)Nc2ccccc2)sc2c1CCCCCC2	>	18
O/N=C(\Nc1cccc(Cl)c1)c1ccc(Cl)c(C(F)(F)F)c1	=	1

----------
- Tested on: Staphylococcus epidermidis
- protocolNotes: Antimicrobial activity against Staphylococcus epidermidis
- Format: functional

molecule	MIC (µg/mL)
CC(=O)Nc1c2sscc-2n(C)c1=O [THIOLUTIN]	6.25
O/N=C(\Nc1ccccc1)c1cccc(C(F)(F)F)c1	100
O/N=C(\Nc1cccc(Cl)c1)c1ccc(Cl)c(C(F)(F)F)c1	25
CNC(=O)[C@@H](C)[C@H]1C(=O)/C(=C(O)/C=C/C(C)=C/[C@@H](C)[C@H]2O[C@@]3(C)O[C@H](C=C[C@@]34CO4)[C@@H]2C)C(=O)N1[C@@H]1CC[C@H](O)[C@H](C)O1 [STREPTOLYDIGIN]	50
CCOC(=O)c1c(NC(=O)Nc2ccccc2)sc2c1CCCCCC2	6.25
CO[C@H]1/C=C/O[C@@]2(C)Oc3c(C)c(O)c4c(O)c(c(/C=N/N5CCN(C6CCCC6)CC5)c(O)c4c3C2=O)NC(=O)/C(C)=C\C=C\[C@H](C)[C@H](O)[C@@H](C)[C@@H](O)[C@@H](C)[C@H](OC(C)=O)[C@@H]1C [RIFAPENTINE]	0.012

----------
IC50: recorded values
- protocolNotes: Inhibition of Staphylococcus epidermidis RNA polymerase mediated transcription

cpdSmiles	unitInfo	relationSign	IC50
CO[C@H]1/C=C/O[C@@]2(C)Oc3c(C)c(O)c4c(O)c(c(/C=N/N5CCN(C)CC5)c(O)c4c3C2=O)NC(=O)/C(C)=C\C=C\[C@H](C)[C@H](O)[C@@H](C)[C@@H](O)[C@@H](C)[C@H](OC(C)=O)[C@@H]1C	µg/mL	=	0.04
CCOC(=O)c1c(NC(=O)Nc2ccccc2)sc2c1CCCCCC2	µg/mL	=	0.5
O/N=C(\Nc1cccc(Cl)c1)c1ccc(Cl)c(C(F)(F)F)c1	µg/mL	=	2.3
CNC(=O)[C@@H](C)[C@H]1C(=O)/C(=C(O)/C=C/C(C)=C/[C@@H](C)[C@H]2O[C@@]3(C)O[C@H](C=C[C@@]34CO4)[C@@H]2C)C(=O)N1[C@@H]1CC[C@H](O)[C@H](C)O1	µg/mL	=	2.3
C=CCN1C(=O)/C(=C/c2ccc(-c3cccc(C(=O)O)c3)o2)SC1=S	µg/mL	=	2.5
CC(=O)Nc1c2sscc-2n(C)c1=O	µg/mL	>	100
O/N=C(\Nc1ccccc1)c1cccc(C(F)(F)F)c1	µg/mL	=	4.2
CO[C@H]1/C=C/O[C@@]2(C)Oc3c(C)c(O)c4c(O)c(c(/C=N/N5CCN(C6CCCC6)CC5)c(O)c4c3C2=O)NC(=O)/C(C)=C\C=C\[C@H](C)[C@H](O)[C@@H](C)[C@@H](O)[C@@H](C)[C@H](OC(C)=O)[C@@H]1C	µg/mL	=	0.08
CC(=O)Nc1c2sscc-2[nH]c1=O	µg/mL	>	100
CO[C@H]1/C=C/O[C@@]2(C)Oc3c(C)c(O)c4c(O)c(c5c(nc6cc(C)ccn65)c4c3C2=O)NC(=O)/C(C)=C\C=C\[C@H](C)[C@H](O)[C@@H](C)[C@@H](O)[C@@H](C)[C@H](OC(C)=O)[C@@H]1C	µg/mL	=	0.07
